# measured-on: Cannabinoid receptor 2 (Homo sapiens, UniProt P34972)
# Sequence (P34972 whole entry, the tested form may be a part): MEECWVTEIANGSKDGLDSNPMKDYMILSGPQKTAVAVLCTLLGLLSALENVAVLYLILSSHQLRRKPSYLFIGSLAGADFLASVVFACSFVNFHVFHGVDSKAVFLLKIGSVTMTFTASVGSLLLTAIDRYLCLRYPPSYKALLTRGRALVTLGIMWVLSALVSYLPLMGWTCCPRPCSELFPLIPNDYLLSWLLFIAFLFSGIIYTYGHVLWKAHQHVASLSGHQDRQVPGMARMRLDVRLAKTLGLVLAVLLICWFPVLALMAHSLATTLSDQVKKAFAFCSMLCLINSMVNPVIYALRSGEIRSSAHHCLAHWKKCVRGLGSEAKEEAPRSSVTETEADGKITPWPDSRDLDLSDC
# experiment-summary: Displacement of [3H]CP55940 from beta-galactosidase reporter fused human CB2 receptor expressed in CHOK1 cell membranes at 1 uM after 1 hr by scintillation spectrometric analysis
measure-name: inhibition

smiles-entry	result
N#Cc1cc(F)ccc1-c1nnc(CCC(=O)Nc2ccc3c(c2)c2ccccc2n3CCF)o1	> 50%

Exam item: Entry O=C(CCc1nnc(-c2ccc(Br)cc2F)o1)Nc1ccc2c(c1)c1ccccc1n2CCF has what inhibition?
Marked response: > 50%

Exam item: Entry N#Cc1cc(F)ccc1-c1nnc(CCC(=O)Nc2ccc3c(c2)c2ccccc2n3CCO)o1 has what inhibition?
Marked response: < 50%

Exam item: Entry O=C(CCc1nnc(-c2ccc(Br)cc2F)o1)Nc1ccc2c(c1)c1ccccc1n2CCO has what inhibition?
Marked response: < 50%

Exam item: Entry O=C(CCc1nnc(-c2ccc(F)cc2Br)o1)Nc1ccc2c(c1)c1ccccc1n2CCF has what inhibition?
Marked response: > 50%

Exam item: Entry O=C(CCc1nnc(-c2ccc(F)cc2Br)o1)Nc1ccc2c(c1)c1ccccc1n2CCO has what inhibition?
Marked response: < 50%

Sourced from ChEMBL document CHEMBL4261554
